Biological target: cAMP and cAMP-inhibited cGMP 3',5'-cyclic phosphodiesterase 10A (Rattus norvegicus, UniProt Q9QYJ6)
Sequence (Q9QYJ6 whole entry): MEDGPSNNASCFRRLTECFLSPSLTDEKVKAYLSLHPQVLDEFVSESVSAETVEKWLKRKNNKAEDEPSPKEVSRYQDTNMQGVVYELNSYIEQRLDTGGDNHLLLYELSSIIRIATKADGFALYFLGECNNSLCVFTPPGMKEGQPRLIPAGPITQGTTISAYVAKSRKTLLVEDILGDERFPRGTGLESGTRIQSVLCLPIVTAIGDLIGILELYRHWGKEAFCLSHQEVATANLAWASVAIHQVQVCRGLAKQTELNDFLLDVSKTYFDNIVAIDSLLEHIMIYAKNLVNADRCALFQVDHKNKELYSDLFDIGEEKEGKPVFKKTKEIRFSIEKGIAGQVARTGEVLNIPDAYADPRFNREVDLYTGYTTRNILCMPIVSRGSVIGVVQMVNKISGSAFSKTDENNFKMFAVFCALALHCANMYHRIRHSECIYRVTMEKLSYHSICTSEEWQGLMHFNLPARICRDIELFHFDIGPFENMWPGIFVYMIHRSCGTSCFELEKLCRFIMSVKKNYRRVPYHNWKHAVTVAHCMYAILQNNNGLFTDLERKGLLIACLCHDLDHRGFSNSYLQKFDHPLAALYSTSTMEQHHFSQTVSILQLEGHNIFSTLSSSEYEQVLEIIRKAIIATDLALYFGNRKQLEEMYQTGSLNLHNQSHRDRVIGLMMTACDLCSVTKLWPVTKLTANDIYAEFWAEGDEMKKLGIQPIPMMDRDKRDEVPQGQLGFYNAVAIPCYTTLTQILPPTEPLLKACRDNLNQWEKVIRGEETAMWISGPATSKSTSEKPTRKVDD
pIC50: −log10 of the molar value.
Would you mind labelling by pIC50? At or over 7 is TRUE, under is FALSE.

Prompt line: Check the entry OCC1CCN(c2nccc(OC3CN(c4ccc5ccccc5n4)C3)n2)CC1 : does pIC50 equal or exceed 7?
Response line: TRUE

Prompt line: Check the entry Clc1ccc(N2CCC(Oc3ncccc3C3CCOCC3)CC2)nc1 : does pIC50 equal or exceed 7?
Response line: FALSE

Prompt line: Check the entry O=C(c1nc2ccccc2[nH]1)N1CCC(Oc2nccnc2-c2ccncc2)CC1 : does pIC50 equal or exceed 7?
Response line: FALSE

Prompt line: Check the entry Cc1cc(-c2nccnc2OC2CCN(C(=O)c3nccc4ccccc34)CC2)ccn1 : does pIC50 equal or exceed 7?
Response line: FALSE

Prompt line: Check the entry c1cnc(OC2CCN(c3nc4ccccc4[nH]3)CC2)c(C2CCOCC2)c1 : does pIC50 equal or exceed 7?
Response line: FALSE

Prompt line: Check the entry CC(=O)N1CCCC(c2cccnc2OC2CN(C(=O)CC(C)(C)C)C2)C1 (centres undefined) : does pIC50 equal or exceed 7?
Response line: FALSE

Prompt line: Check the entry CC(=O)N1CCC(c2nccnc2OC2CCN(c3ccc4ccccc4n3)CC2)CC1 : does pIC50 equal or exceed 7?
Response line: FALSE

Prompt line: Check the entry OCC1CCN(c2nccnc2OC2CN(c3cnc4ccccc4n3)C2)CC1 : does pIC50 equal or exceed 7?
Response line: TRUE

Prompt line: Check the entry c1ccc2nc(N3CC(Oc4nccnc4-c4ccncc4)C3)ccc2c1 : does pIC50 equal or exceed 7?
Response line: TRUE

Prompt line: Check the entry CN1CCN(c2nccnc2OC2CN(c3ccc4ccccc4n3)C2)CC1 : does pIC50 equal or exceed 7?
Response line: FALSE

Prompt line: Check the entry CC(=O)N1CCC(c2nc3ccccc3nc2OC2CN(c3ccc4ccccc4n3)C2)CC1 : does pIC50 equal or exceed 7?
Response line: TRUE

Prompt line: Check the entry CNC(=O)c1ccc(-c2nccnc2OC2CN(c3ccc4ccccc4n3)C2)cc1 : does pIC50 equal or exceed 7?
Response line: TRUE

Prompt line: Check the entry c1ccc2nc(N3CC(Oc4nccnc4N4CCC5(CC4)COC5)C3)ccc2c1 : does pIC50 equal or exceed 7?
Response line: TRUE

Prompt line: Check the entry c1ccc2nc(N3CC(Oc4nccnc4N4CCCC4)C3)ccc2c1 : does pIC50 equal or exceed 7?
Response line: FALSE

Prompt line: Check the entry O=C(c1nc2ccccc2s1)N1CCC(Oc2ncccc2C2CCOCC2)CC1 : does pIC50 equal or exceed 7?
Response line: FALSE

Prompt line: Check the entry OC1CN(c2nccnc2OC2CCN(c3ccc4ccccc4n3)CC2)C1 : does pIC50 equal or exceed 7?
Response line: FALSE

Prompt line: Check the entry Cc1cccc(-c2nccnc2OC2CN(c3ccc4ccccc4n3)C2)c1 : does pIC50 equal or exceed 7?
Response line: TRUE

Prompt line: Check the entry FC(F)(F)c1ccc(N2CCC(Oc3ncccc3C3CCOCC3)CC2)nc1 : does pIC50 equal or exceed 7?
Response line: FALSE

Prompt line: Check the entry c1ccc2c(N3CC[C@H](Oc4nccnc4C4CCOCC4)C3)nccc2c1 : does pIC50 equal or exceed 7?
Response line: FALSE

Prompt line: Check the entry Cc1cc(-c2cccnc2OC2CCN(C(=O)c3ccc4ccccc4n3)CC2)ccn1 : does pIC50 equal or exceed 7?
Response line: FALSE

Prompt line: Check the entry Fc1cc(-c2nccnc2OC2CN(c3ccc4ccccc4n3)C2)ccn1 : does pIC50 equal or exceed 7?
Response line: TRUE

Prompt line: Check the entry C1=C(c2nccnc2OC2CN(c3ccc4ccccc4n3)C2)CCOC1 : does pIC50 equal or exceed 7?
Response line: TRUE

Prompt line: Check the entry Cc1cc(-c2cnc(N3CCC(CO)CC3)nc2OC2CN(c3ccc4ccccc4n3)C2)ccn1 : does pIC50 equal or exceed 7?
Response line: TRUE

Prompt line: Check the entry O=C(c1ccccn1)N1CCC(Oc2ncccc2C2CCOCC2)CC1 : does pIC50 equal or exceed 7?
Response line: FALSE

Prompt line: Check the entry N#CC1CCN(c2nc3ccccc3nc2OC2CN(c3ccc4ccccc4n3)C2)CC1 : does pIC50 equal or exceed 7?
Response line: TRUE

Prompt line: Check the entry COc1cccc(-c2nc3ccccc3nc2OC2CN(c3ccc4ccccc4n3)C2)c1 : does pIC50 equal or exceed 7?
Response line: TRUE
